- test-description: Half life in Sprague-Dawley rat at 30 mg/kg, iv by LC-MS/MS analysis
- Assay type: ADME, organism-based
- measurement-conditions: in vivo
readout-type: half-life (min)
Respond numerically; units are min and should not be typed.

Query half-life for `CN(C)C[C@@H]1C(=O)O[C@@H]2C[C@@]3(C)CC[C@@H](O)[C@]4(CO4)[C@@H]3C[C@H]12.O=C(O)/C=C/C(=O)O`
81

Specify half-life for `C[C@H]1CCC[C@]2(C)C[C@H]3OC(=O)[C@@H](CN(C)C)[C@H]3[C@@H]3O[C@@]132.O=C(O)/C=C/C(=O)O` and stop.
73

====

I'd be grateful if you could share measured AUC for these entries.
- System: Rattus norvegicus
- test-description: AUC (0 to infinity) in Sprague-Dawley rat at 150 mg/kg, po by LC-MS/MS analysis
- Format: ADME, organism-based
- Parameters: dose 150 mg/kg, time infinity, route oral
- measurement-conditions: in vivo
Quick note: unit goes after the number.

Give the measured AUC for `CN(C)C[C@@H]1C(=O)O[C@@H]2C[C@@]3(C)CC[C@@H](O)[C@]4(CO4)[C@@H]3C[C@H]12.O=C(O)/C=C/C(=O)O`
174 µg·h/mL

Identify measured AUC corresponding to `C[C@H]1CCC[C@]2(C)C[C@H]3OC(=O)[C@@H](CN(C)C)[C@H]3[C@@H]3O[C@@]132.O=C(O)/C=C/C(=O)O`
37.8 µg·h/mL

====

- test-description: Cmax in Sprague-Dawley rat at 30 mg/kg, iv by LC-MS/MS analysis
- Assay type: ADME, organism-based
- Parameters: dose 30 mg/kg, route intravenous
- measurement-conditions: in vivo
Assign Cmax to each entry below.
Could you give me the number in ng/mL? Just the number is fine.

Tell me measured Cmax for `CN(C)C[C@@H]1C(=O)O[C@@H]2C[C@@]3(C)CC[C@@H](O)[C@]4(CO4)[C@@H]3C[C@H]12.O=C(O)/C=C/C(=O)O` please.
22700

Specify Cmax for `C[C@H]1CCC[C@]2(C)C[C@H]3OC(=O)[C@@H](CN(C)C)[C@H]3[C@@H]3O[C@@]132.O=C(O)/C=C/C(=O)O` and stop.
17500

====

- test-description: Half life in Sprague-Dawley rat at 150 mg/kg, po by LC-MS/MS analysis
- Type: ADME, organism-based
- measurement-conditions: in vivo
Please go through the items and note down their half-life.
Record the value in h, omitting the unit from your answer.

Identify the reported half-life for the following entry. `C[C@H]1CCC[C@]2(C)C[C@H]3OC(=O)[C@@H](CN(C)C)[C@H]3[C@@H]3O[C@@]132.O=C(O)/C=C/C(=O)O`
1.42

For the compound `CN(C)C[C@@H]1C(=O)O[C@@H]2C[C@@]3(C)CC[C@@H](O)[C@]4(CO4)[C@@H]3C[C@H]12.O=C(O)/C=C/C(=O)O` , report half-life.
2.02

====

- tested-system: Transforming growth factor beta-1 proprotein/Mothers against decapentaplegic homolog 3 (Mus musculus) (UniProt P04202+Q8BUN5)
- Sequence (P04202 279-390 limits assumed): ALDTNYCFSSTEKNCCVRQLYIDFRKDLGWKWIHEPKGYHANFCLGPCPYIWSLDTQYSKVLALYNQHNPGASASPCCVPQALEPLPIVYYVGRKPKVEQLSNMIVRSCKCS
- Sequence (Q8BUN5 2-425 partner limits assumed): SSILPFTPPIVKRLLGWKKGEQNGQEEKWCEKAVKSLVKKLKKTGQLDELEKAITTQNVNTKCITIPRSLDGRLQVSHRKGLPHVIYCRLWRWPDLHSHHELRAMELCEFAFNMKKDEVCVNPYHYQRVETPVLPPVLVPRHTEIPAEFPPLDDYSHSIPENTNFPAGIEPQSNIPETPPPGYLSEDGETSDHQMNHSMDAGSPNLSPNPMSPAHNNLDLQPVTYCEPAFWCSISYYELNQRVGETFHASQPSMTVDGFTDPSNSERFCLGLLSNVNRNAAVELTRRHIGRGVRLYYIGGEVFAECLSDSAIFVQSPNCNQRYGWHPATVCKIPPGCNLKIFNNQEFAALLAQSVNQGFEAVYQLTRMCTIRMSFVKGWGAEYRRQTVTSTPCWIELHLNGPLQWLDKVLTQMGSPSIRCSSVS
- test-description: Inhibition of TGF-beta1/smad3 signaling pathway in mouse NIH/3T3 cells at 10 uM after 18 hrs by CAGA-luciferase reporter gene assay relative to control
- Type: cell-based
Task for the reader: assign each of the following compounds its reported inhibition.

Output inhibition of `C=C1C(=O)O[C@@H]2C[C@@]3(C)CC[C@@H](OC(=O)[C@@H](NC(=O)OC(C)(C)C)C(C)C)C(=C)[C@@H]3C[C@H]12`
22%

Return inhibition for the following compound: `C=C1C(=O)O[C@@H]2C[C@@]3(C)CC[C@@H](OC(=O)CP(=O)(OCC)OCC)[C@]4(CO4)[C@@H]3C[C@H]12`
3.67%

Given `C=C1C(=O)O[C@@H]2C[C@@]3(C)CC[C@@H](OC(=O)/C=C/CCC)[C@]4(CO4)[C@@H]3C[C@H]12` , respond with its inhibition.
13.5%

Output inhibition of `C=C1C(=O)O[C@@H]2C[C@@]3(C)CC[C@@H](OC(C)=O)[C@]4(CO4)[C@@H]3C[C@H]12`
-2.36%

====

- test-description: Cmax in Sprague-Dawley rat at 150 mg/kg, po by LC-MS/MS analysis
- Format: ADME, organism-based
- Parameters: dose 150 mg/kg, route oral
- measurement-conditions: in vivo
readout-type: Cmax (ng/mL)
Please state the figure in ng/mL; there is no need to write the unit.

Please give the documented Cmax of `C[C@H]1CCC[C@]2(C)C[C@H]3OC(=O)[C@@H](CN(C)C)[C@H]3[C@@H]3O[C@@]132.O=C(O)/C=C/C(=O)O`
18500

Specify Cmax for `CN(C)C[C@@H]1C(=O)O[C@@H]2C[C@@]3(C)CC[C@@H](O)[C@]4(CO4)[C@@H]3C[C@H]12.O=C(O)/C=C/C(=O)O` and stop.
62300

====

What AUCt was measured for each of the following?
- Test system: Rattus norvegicus
- test-description: AUC (0 to t) in Sprague-Dawley rat at 150 mg/kg, po by LC-MS/MS analysis
- Format: ADME, organism-based
- measurement-conditions: in vivo
Kindly answer with a numeric value in µg·h/mL, unit omitted.

Give reported AUCt value for `C[C@H]1CCC[C@]2(C)C[C@H]3OC(=O)[C@@H](CN(C)C)[C@H]3[C@@H]3O[C@@]132.O=C(O)/C=C/C(=O)O`
37.6

Supply recorded AUCt for `CN(C)C[C@@H]1C(=O)O[C@@H]2C[C@@]3(C)CC[C@@H](O)[C@]4(CO4)[C@@H]3C[C@H]12.O=C(O)/C=C/C(=O)O` here.
171

====

Provide the recorded AUC for the entries that follow.
- System: Rattus norvegicus
- test-description: AUC (0 to infinity) in Sprague-Dawley rat at 30 mg/kg, iv by LC-MS/MS analysis
- Format: ADME, organism-based
- Parameters: dose 30 mg/kg, time infinity, route intravenous
- measurement-conditions: in vivo
// units = ng·h/mL; emit number, no label

For `C[C@H]1CCC[C@]2(C)C[C@H]3OC(=O)[C@@H](CN(C)C)[C@H]3[C@@H]3O[C@@]132.O=C(O)/C=C/C(=O)O` , write its AUC.
10000

Supply AUC value. Item: `CN(C)C[C@@H]1C(=O)O[C@@H]2C[C@@]3(C)CC[C@@H](O)[C@]4(CO4)[C@@H]3C[C@H]12.O=C(O)/C=C/C(=O)O`
44900

====

Field: AUCt. Provide a value for each of the molecules that follow.
- Test system: Rattus norvegicus
- test-description: AUC (0 to t) in Sprague-Dawley rat at 30 mg/kg, iv by LC-MS/MS analysis
- Type: ADME, organism-based
- measurement-conditions: in vivo
Express the result in ng·h/mL but write the number alone.

Please indicate AUCt recorded for `C[C@H]1CCC[C@]2(C)C[C@H]3OC(=O)[C@@H](CN(C)C)[C@H]3[C@@H]3O[C@@]132.O=C(O)/C=C/C(=O)O`
10000

Give the reported value of AUCt for this record: `CN(C)C[C@@H]1C(=O)O[C@@H]2C[C@@]3(C)CC[C@@H](O)[C@]4(CO4)[C@@H]3C[C@H]12.O=C(O)/C=C/C(=O)O`
43800

====

- tested-system: UniProt:P04202
- test-description: Inhibition of TGF-beta1 in mouse Mlg cells assessed as reduction in cell migration at 10 uM after 24 hrs by wound healing based light microscopy
The source made the active and inactive calls. The rule behind the calls is not given here.
Valid outcomes are listed here; reply with one: active, inactive

Query: recorded result category for `C=C1C(=O)O[C@@H]2C[C@@]3(C)CC[C@@H](OC(=O)/C=C/C(=O)OCC)[C@]4(CO4)[C@@H]3C[C@H]12` in this test
active

Dear colleague, could you share the recorded outcome for `C=C1C(=O)O[C@@H]2C[C@@]3(C)CC[C@@H](OC(=O)C4=CCCCC4)[C@]4(CO4)[C@@H]3C[C@H]12` when you have a moment?
inactive

Recorded test outcome, item `C=C1C(=O)O[C@@H]2C[C@@]3(C)CC[C@@H](O)[C@]4(CO4)[C@@H]3C[C@H]12`
active

Recorded call for `C=C1C(=O)O[C@@H]2C[C@@]3(C)CCC[C@H](C)[C@@]34O[C@H]4[C@H]12` ?
active

// outcome(item) with item = `C=C1C(=O)O[C@@H]2C[C@@]3(C)CC[C@@H](O)C(=C)[C@@H]3C[C@H]12`
active

====

Would you mind telling me the reported Tmax of each entry?
- test-description: Tmax in Sprague-Dawley rat at 150 mg/kg, po by LC-MS/MS analysis
- Assay type: ADME, organism-based
- measurement-conditions: in vivo
Respond numerically; units are min and should not be typed.

Given the molecule `CN(C)C[C@@H]1C(=O)O[C@@H]2C[C@@]3(C)CC[C@@H](O)[C@]4(CO4)[C@@H]3C[C@H]12.O=C(O)/C=C/C(=O)O` , write its reported Tmax.
42

Annotate the molecule `C[C@H]1CCC[C@]2(C)C[C@H]3OC(=O)[C@@H](CN(C)C)[C@H]3[C@@H]3O[C@@]132.O=C(O)/C=C/C(=O)O` with its measured Tmax.
30
